Origin of measurements: PubChem BioAssay AID1963874

system: 253994-281-T-J1-PDC KRAS-mutant spheroids with HUVEC/MSC, viability; assay: Anticancer human tumor 253994-281-T-J1-PDC patient-derived colorectal carcinoma cell line growth inhibition [KRAS2]; conditions: curve of first compound; second compound 0.316 µM;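 also: spheroids exposed to agents for seven days before readout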
IC50 values, listed per item
Readout Kind: IC50

INSERT INTO assay_data (compound, readout_value) VALUES
  ('COc1cc2nccc(Oc3ccc(NC(=O)C4(C(=O)Nc5ccc(F)cc5)CC4)cc3)c2cc1OC + COc1cc2nc(C)nc(NC(C)c3cc(N)cc(C(F)(F)F)c3)c2cc1OC1CCOC1', '> 10000 nM'),
  ('COc1cc(Nc2ncc3c(n2)-c2ccc(Cl)cc2C(c2c(F)cccc2OC)=NC3)ccc1C(=O)O + C=CC(=O)N1CCN(c2nc(OCC3CCCN3C)nc3c2CCN(c2cccc4cccc(C)c24)C3)CC1CC#N', '< 31.6 nM'),
  ('CC1(C)CCC(CN2CCN(c3ccc(C(=O)NS(=O)(=O)c4ccc(NCC5CCOCC5)c([N+](=O)[O-])c4)c(Oc4cnc5[nH]ccc5c4)c3)CC2)=C(c2ccc(Cl)cc2)C1 + COc1cc2nc(C)nc(NC(C)c3cc(N)cc(C(F)(F)F)c3)c2cc1OC1CCOC1', '> 10000 nM'),
  ('CCNC(=O)CC1N=C(c2ccc(Cl)cc2)c2cc(OC)ccc2-n2c(C)nnc21 (configuration not stated) + COc1cc2nc(C)nc(NC(C)c3cc(N)cc(C(F)(F)F)c3)c2cc1OC1CCOC1', '> 10000 nM'),
  ('CCN1CCN(Cc2ccc(Nc3ncc(F)c(-c4cc(F)c5nc(C)n(C(C)C)c5c4)n3)nc2)CC1 + COc1cc2nc(C)nc(NC(C)c3cc(N)cc(C(F)(F)F)c3)c2cc1OC1CCOC1', '317 nM'),
  ('CN(C)C/C=C/C(=O)Nc1cc2c(Nc3ccc(F)c(Cl)c3)ncnc2cc1O[C@H]1CCOC1 + COc1cc2nc(C)nc(NC(C)c3cc(N)cc(C(F)(F)F)c3)c2cc1OC1CCOC1', '> 100 nM'),
  ('CC(=O)Nc1cccc(-n2c(=O)n(C3CC3)c(=O)c3c(Nc4ccc(I)cc4F)n(C)c(=O)c(C)c32)c1 + C=CC(=O)N1CCN(c2nc(=O)n(-c3c(C)ccnc3C(C)C)c3nc(-c4c(O)cccc4F)c(F)cc23)C(C)C1', '1.03 nM'),
  ('CC(C)NCC(C(=O)N1CCN(c2ncnc3c2C(C)CC3O)CC1)c1ccc(Cl)cc1 (configuration not stated) + C=CC(=O)N1CCN(c2nc(OCC3CCCN3C)nc3c2CCN(c2cccc4cccc(C)c24)C3)CC1CC#N', '> 10000 nM'),
  ('COc1cc(Nc2ncc3c(n2)-c2ccc(Cl)cc2C(c2c(F)cccc2OC)=NC3)ccc1C(=O)O + CC1OCC2(CCN(c3cnc(Sc4ccnc(N)c4Cl)c(N)n3)CC2)C1N', '< 31.6 nM'),
  ('O=C(c1cc(Cc2n[nH]c(=O)c3ccccc23)ccc1F)N1CCN(C(=O)C2CC2)CC1 + CNCc1ccccc1-c1csc(C(C)Nc2nc(C)nc3cc(OC)c(OC)cc23)c1', '> 10000 nM'),
  ('Cn1ncnc1[C@H]1c2n[nH]c(=O)c3cc(F)cc(c23)N[C@@H]1c1ccc(F)cc1 + COc1cc2nc(C)nc(NC(C)c3cc(N)cc(C(F)(F)F)c3)c2cc1OC1CCOC1', '> 100 nM'),
  ('CN(C)C/C=C/C(=O)Nc1cc2c(Nc3ccc(F)c(Cl)c3)ncnc2cc1O[C@H]1CCOC1 + C=CC(=O)N1CCN(c2nc(=O)n(-c3c(C)ccnc3C(C)C)c3nc(-c4c(O)cccc4F)c(F)cc23)C(C)C1', '> 100 nM'),
  ('COC(=O)c1ccc2c(C(=Nc3ccc(N(C)C(=O)CN4CCN(C)CC4)cc3)c3ccccc3)c(O)[nH]c2c1 + C=CC(=O)N1CCN(c2nc(=O)n(-c3c(C)ccnc3C(C)C)c3nc(-c4c(O)cccc4F)c(F)cc23)C(C)C1', '5610 nM'),
  ('Cn1nccc1Nc1nccc(-c2cc3c(s2)C(C)(C)N(CCN2CCOCC2)C3=O)n1 + CC1OCC2(CCN(c3cnc(Sc4ccnc(N)c4Cl)c(N)n3)CC2)C1N', '745 nM'),
  ('CC1OCC2(CCN(c3cnc(Sc4ccnc(N)c4Cl)c(N)n3)CC2)C1N (configuration not stated) + C=CC(=O)N1CCN(c2nc(OCC3CCCN3C)nc3c2CCN(c2cccc4cccc(C)c24)C3)CC1CC#N', '6830 nM'),
  ('CC(C)n1nc(-c2ccc3oc(N)nc3c2)c2c(N)ncnc21 + COc1cc2nc(C)nc(NC(C)c3cc(N)cc(C(F)(F)F)c3)c2cc1OC1CCOC1', '> 100 nM'),
  ('CC(=O)Nc1cccc(-n2c(=O)n(C3CC3)c(=O)c3c(Nc4ccc(I)cc4F)n(C)c(=O)c(C)c32)c1 + CNCc1ccccc1-c1csc(C(C)Nc2nc(C)nc3cc(OC)c(OC)cc23)c1', '0.415 nM'),
  ('Cn1nccc1Nc1nccc(-c2cc3c(s2)C(C)(C)N(CCN2CCOCC2)C3=O)n1 + C=CC(=O)N1CCN(c2nc(OCC3CCCN3C)nc3c2CCN(c2cccc4cccc(C)c24)C3)CC1CC#N', '2150 nM'),
  ('CC1(C)CCC(CN2CCN(c3ccc(C(=O)NS(=O)(=O)c4ccc(NCC5CCOCC5)c([N+](=O)[O-])c4)c(Oc4cnc5[nH]ccc5c4)c3)CC2)=C(c2ccc(Cl)cc2)C1 + C=CC(=O)N1CCN(c2nc(=O)n(-c3c(C)ccnc3C(C)C)c3nc(-c4c(O)cccc4F)c(F)cc23)C(C)C1', '> 10000 nM'),
  ('O=C(c1cc(Cc2n[nH]c(=O)c3ccccc23)ccc1F)N1CCN(C(=O)C2CC2)CC1 + COc1cc2nc(C)nc(NC(C)c3cc(N)cc(C(F)(F)F)c3)c2cc1OC1CCOC1', '> 10000 nM'),
  ('CC1COCCN1c1cc(-c2ccnn2C)c2ccnc(-c3ccn[nH]3)c2n1 (configuration not stated) + C=CC(=O)N1CCN(c2nc(=O)n(-c3c(C)ccnc3C(C)C)c3nc(-c4c(O)cccc4F)c(F)cc23)C(C)C1', '> 3160 nM'),
  ('CN(C)C/C=C/C(=O)Nc1cc2c(Nc3ccc(F)c(Cl)c3)ncnc2cc1O[C@H]1CCOC1 + CNCc1ccccc1-c1csc(C(C)Nc2nc(C)nc3cc(OC)c(OC)cc23)c1', '> 100 nM');
